test system: HepG2 cells; test: HepG2 cytotoxicity; format: cell-based; conditions: Homo sapiens; toxicity against HepG2 cells
I'd appreciate it if you could supply EC50 values for the items below.
Answers are plain numbers, in µM.

Consider the worked cases shown below.
{"columns": ["molecule", "EC50 [µM]"],
 "data": [
  ["CC(C)Cc1n[nH]c2c1C(c1ccc(F)cc1)N(c1ccc(Br)cc1)C2=O (centres unmarked)", 39.8],
  ["COc1ccc(N2C(=O)c3[nH]nc(CC(C)C)c3C2c2ccc(F)cc2)cc1F (centres unmarked)", 50.1]
]}

Would you mind giving EC50 for every molecule in the list below?
1. COc1ccc(N2C(=O)c3[nH]nc(CC(C)C)c3C2C2CCN(Cc3ccccc3)CC2)cc1 (centres unmarked)
2. COc1ccc(N2C(=O)c3[nH]nc(CC(C)C)c3C2c2cccc(OC)c2)cc1 (centres unmarked)
3. COc1ccc(N2C(=O)c3[nH]nc(-c4ccc5c(c4)CCC5)c3C2c2ccc(F)cc2)cc1 (centres unmarked)

1: 63.1; 2: 63.1; 3: 25.1
